EXPERIMENTAL_PROTOCOL: Metabolism in rat liver microsomes
Type: in vitro ADME
CONDITIONS: rat, liver microsomes; 1 μM substrate, 0.4 mg/mL protein, NADPH, 37 °C, 60 min; single incubation; read-out: CLint of authentic metabolite incubated
READOUT_LABEL: microsomal CLint at 1 μM (µL/min/mg)

Illustrative cases are given below, each with its answer.
CCNCCN(CCN(CC)CC)c1cc(OC)c(O)cc1Br | 45
CCNCCN(CCNCC)c1cc(OC)c(OC)cc1Br | 4.4

(1) CCNCCN(CCN(CC)CC)c1cc(OC)c(OC)cc1Br
(2) CCN(CC)CCN(CCN(CC)CC)c1cc(OC)c(O)cc1Br
Inquiry: Of the two listed items, 1 and 2 , which carries the larger microsomal CLint at 1 μM figure? Write down the label attached to your selection.
Reply text: 2

---

EXPERIMENTAL_PROTOCOL: Pharmacokinetics in rats after IV and PO administration
Type: in vivo, male Sprague–Dawley rats
CONDITIONS: male, Sprague-Dawley, rat, plasma, po, oral administration; read-out: time of maximum plasma concentrations postdose
READOUT_LABEL: Tmax

Inquiry: Specify measured Tmax for CCN(CC)CCN(CCN(CC)CC)c1cc(OC)c(OC)cc1Br .
Reply text: ~1 h

---

EXPERIMENTAL_PROTOCOL: Pharmacokinetics in rats after IV and PO administration
Type: in vivo, male Sprague–Dawley rats
CONDITIONS: male, Sprague-Dawley, rat, plasma, po, 27 mg/kg
READOUT_LABEL: Cmax (nM)
Report as a plain number; the unit nM is understood.

Inquiry: Specify measured Cmax for CCN(CC)CCN(CCN(CC)CC)c1cc(OC)c(OC)cc1Br .
Reply text: 310

---

EXPERIMENTAL_PROTOCOL: Metabolism in rhesus monkey liver microsomes
Type: in vitro ADME
CONDITIONS: substrate 1 at 1 μM, 0.4 mg/mL protein; percentage of initial substrate concentration; ND = not detected
READOUT_LABEL: average individual metabolite formed over a 60 min incubation of 1 (%)

Illustrative cases are given below, each with its answer.
CCNCCN(CCN(CC)CC)c1cc(OC)c(OC)cc1Br | 20
CCNCCN(CCN(CC)CC)c1cc(OC)c(O)cc1Br | 2.4

(I) CCN(CC)CCN(CCN(CC)CC)c1cc(OC)c(O)cc1Br
(II) CCNCCN(CCNCC)c1cc(OC)c(OC)cc1Br
Inquiry: Of the two listed items, I and II , which carries the larger average individual metabolite formed over a 60 min incubation of 1 figure? Write down the label attached to your selection.
Reply text: I
(I: 15%, II: 1.4%)

---

EXPERIMENTAL_PROTOCOL: Pharmacokinetics in rats after IV and PO administration
Assay type: in vivo, male Sprague–Dawley rats
CONDITIONS: male, Sprague-Dawley, rat, plasma, intravenous and oral, after IV and PO administration; read-out: terminal half-life
READOUT_LABEL: half-life

Inquiry: Specify measured half-life for CCN(CC)CCN(CCN(CC)CC)c1cc(OC)c(OC)cc1Br .
Reply text: 5 to 7 h

---

EXPERIMENTAL_PROTOCOL: Pharmacokinetics in rats after IV and PO administration
Assay type: in vivo, male Sprague–Dawley rats
CONDITIONS: male, Sprague-Dawley, rat, plasma, iv, 3 mg/kg, IV, 3 mg/kg, n = 5; read-out: plasma half-life (converted)
READOUT_LABEL: half-life (h)
Report as a plain number; the unit h is understood.

Inquiry: Specify measured half-life for CCN(CC)CCN(CCN(CC)CC)c1cc(OC)c(OC)cc1Br .
Reply text: 7

---

EXPERIMENTAL_PROTOCOL: Pharmacokinetics in rats after IV and PO administration
Assay type: in vivo, male Sprague–Dawley rats
CONDITIONS: PO, 11 mg/kg, individual values n = 2
READOUT_LABEL: Cmax (nM)
Report as a plain number; the unit nM is understood.

Inquiry: Specify measured Cmax for CCN(CC)CCN(CCN(CC)CC)c1cc(OC)c(OC)cc1Br .
Reply text: 50

---

EXPERIMENTAL_PROTOCOL: Pharmacokinetics in rats after IV and PO administration
Assay type: in vivo, male Sprague–Dawley rats
CONDITIONS: male, Sprague-Dawley, rat, plasma, po, 11 mg/kg
READOUT_LABEL: bioavailability

Inquiry: Specify measured bioavailability for CCN(CC)CCN(CCN(CC)CC)c1cc(OC)c(OC)cc1Br .
Reply text: ~16%

---

EXPERIMENTAL_PROTOCOL: Metabolism in human liver microsomes
Assay type: in vitro ADME
CONDITIONS: human, liver microsomes; 1 μM substrate, 0.4 mg/mL microsomal protein, NADPH, 37 °C, 60 min; average of three replicates; read-out: CLint
Protocol: Following the protocols described by Charman et al.,[28]1 was incubated at 37 °C with human, rat, and rhesus monkey liver microsomes. […] The supernatant was removed and analyzed by LC/MS. […] For metabolite quantitation, the method described below for the analysis of plasma samples was used.
READOUT_LABEL: microsomal CLint at 1 μM

Inquiry: Specify measured microsomal CLint at 1 μM for CCN(CC)CCN(CCN(CC)CC)c1cc(OC)c(OC)cc1Br [Compound 1] .
Reply text: < 3 µL/min/mg

---

EXPERIMENTAL_PROTOCOL: Pharmacokinetics in rats after IV and PO administration
Assay type: in vivo, male Sprague–Dawley rats
CONDITIONS: male, Sprague-Dawley, rat, plasma, po, 27 mg/kg, PO, 27 mg/kg, n = 3; read-out: plasma half-life (converted)
READOUT_LABEL: half-life (h)
Report as a plain number; the unit h is understood.

Inquiry: Specify measured half-life for CCN(CC)CCN(CCN(CC)CC)c1cc(OC)c(OC)cc1Br .
Reply text: 7.4

---

EXPERIMENTAL_PROTOCOL: Pharmacokinetics in rats after IV and PO administration
Type: in vivo, male Sprague–Dawley rats
CONDITIONS: male, Sprague-Dawley, rat, urine; after oral administration of 1 at 27 mg/kg; read-out: recovery of metabolite in urine, percentage of the 1 dose
READOUT_LABEL: dose excreted (%)

CCNCCN(CCNCC)c1cc(OC)c(OC)cc1Br [Compound 5] | 3
CCNCCN(CCN(CC)CC)c1cc(OC)c(OC)cc1Br [Compound 3] | 3.3

---

EXPERIMENTAL_PROTOCOL: Pharmacokinetics in rats after IV and PO administration
Type: in vivo, male Sprague–Dawley rats
CONDITIONS: male, Sprague-Dawley, rat, plasma, iv, 3 mg/kg
Method: Animal studies were conducted using established procedures in accordance with the Australian Code of Practice for the Care and Use of Animals for Scientific Purposes, and the study protocols were reviewed and approved by the Monash Institute of Pharmaceutical Sciences Animal Ethics Committee. […] The quantitation range in plasma was typically 1–10000 ng/mL, and the accuracy and precision were within ±10% and <10%, respectively, for each analyte. […]
READOUT_LABEL: clearance (mL/min/kg)
Report as a plain number; the unit mL/min/kg is understood.

Inquiry: Specify measured clearance for CCN(CC)CCN(CCN(CC)CC)c1cc(OC)c(OC)cc1Br .
Reply text: 147

---

EXPERIMENTAL_PROTOCOL: Pharmacokinetics in rats after IV and PO administration
Assay type: in vivo, male Sprague–Dawley rats
CONDITIONS: male, Sprague-Dawley, rat, plasma, po, 11 mg/kg, individual values n = 2
READOUT_LABEL: Cmax (nM)
Report as a plain number; the unit nM is understood.

Inquiry: Specify measured Cmax for CCN(CC)CCN(CCN(CC)CC)c1cc(OC)c(OC)cc1Br .
Reply text: 70

---

EXPERIMENTAL_PROTOCOL: Metabolism in rhesus monkey liver microsomes
Assay type: in vitro ADME
CONDITIONS: rhesus monkey, liver microsomes; 1 μM substrate, 0.4 mg/mL microsomal protein, NADPH, 37 °C, 60 min; average of three replicates; read-out: CLint
READOUT_LABEL: microsomal CLint at 1 μM (µL/min/mg)
Report as a plain number; the unit µL/min/mg is understood.

Inquiry: Specify measured microsomal CLint at 1 μM for CCN(CC)CCN(CCN(CC)CC)c1cc(OC)c(OC)cc1Br .
Reply text: 23
